- systemUnderTest: PI3K-γ (Homo sapiens)
- Sequence (P48736 whole entry, species assumed): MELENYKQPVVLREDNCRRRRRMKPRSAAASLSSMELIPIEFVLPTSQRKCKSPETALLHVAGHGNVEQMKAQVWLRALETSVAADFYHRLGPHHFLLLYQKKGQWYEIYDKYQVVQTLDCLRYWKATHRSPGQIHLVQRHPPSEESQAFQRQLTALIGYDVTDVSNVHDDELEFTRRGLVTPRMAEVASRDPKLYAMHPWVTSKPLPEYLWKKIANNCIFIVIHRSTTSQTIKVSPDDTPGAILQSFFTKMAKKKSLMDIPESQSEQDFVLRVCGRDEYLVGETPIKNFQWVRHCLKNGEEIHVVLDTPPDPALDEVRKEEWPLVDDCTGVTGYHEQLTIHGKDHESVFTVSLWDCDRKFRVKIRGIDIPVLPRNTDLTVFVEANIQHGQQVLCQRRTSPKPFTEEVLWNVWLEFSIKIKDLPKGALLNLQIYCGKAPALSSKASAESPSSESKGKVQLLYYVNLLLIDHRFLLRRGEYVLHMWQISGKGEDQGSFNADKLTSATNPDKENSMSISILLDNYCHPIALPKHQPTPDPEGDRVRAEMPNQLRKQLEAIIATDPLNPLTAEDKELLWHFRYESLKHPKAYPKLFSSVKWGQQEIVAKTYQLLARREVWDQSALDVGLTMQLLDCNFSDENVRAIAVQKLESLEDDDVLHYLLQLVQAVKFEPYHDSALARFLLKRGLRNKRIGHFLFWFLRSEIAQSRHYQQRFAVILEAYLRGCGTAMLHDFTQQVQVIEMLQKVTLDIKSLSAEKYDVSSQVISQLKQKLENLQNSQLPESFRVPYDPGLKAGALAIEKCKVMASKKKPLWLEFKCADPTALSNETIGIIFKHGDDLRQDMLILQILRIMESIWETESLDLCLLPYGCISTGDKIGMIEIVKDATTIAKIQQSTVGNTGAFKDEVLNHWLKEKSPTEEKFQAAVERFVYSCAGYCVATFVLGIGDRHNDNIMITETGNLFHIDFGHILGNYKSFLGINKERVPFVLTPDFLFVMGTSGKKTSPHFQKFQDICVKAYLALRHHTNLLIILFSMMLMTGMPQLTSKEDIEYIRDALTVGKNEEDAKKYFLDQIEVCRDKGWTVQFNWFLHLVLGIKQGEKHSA
- procedureDetails: PI3K-gamma fluorescence polarization assay
- conditionSet: read-out: IC50 PI3Kγ; listed as 732

chemicalStructure | systemUnderTest | outputUnit | IC50
CC(C)NCCCc1nc(-c2ccc(NC(=O)Nc3ccncc3)cc2)nc(N2CCOCC2)n1 | PI3K-γ (Homo sapiens) | nM | 478

====

- systemUnderTest: PI3K-α (Homo sapiens, UniProt P42336)
- Sequence (P42336 whole entry, species assumed): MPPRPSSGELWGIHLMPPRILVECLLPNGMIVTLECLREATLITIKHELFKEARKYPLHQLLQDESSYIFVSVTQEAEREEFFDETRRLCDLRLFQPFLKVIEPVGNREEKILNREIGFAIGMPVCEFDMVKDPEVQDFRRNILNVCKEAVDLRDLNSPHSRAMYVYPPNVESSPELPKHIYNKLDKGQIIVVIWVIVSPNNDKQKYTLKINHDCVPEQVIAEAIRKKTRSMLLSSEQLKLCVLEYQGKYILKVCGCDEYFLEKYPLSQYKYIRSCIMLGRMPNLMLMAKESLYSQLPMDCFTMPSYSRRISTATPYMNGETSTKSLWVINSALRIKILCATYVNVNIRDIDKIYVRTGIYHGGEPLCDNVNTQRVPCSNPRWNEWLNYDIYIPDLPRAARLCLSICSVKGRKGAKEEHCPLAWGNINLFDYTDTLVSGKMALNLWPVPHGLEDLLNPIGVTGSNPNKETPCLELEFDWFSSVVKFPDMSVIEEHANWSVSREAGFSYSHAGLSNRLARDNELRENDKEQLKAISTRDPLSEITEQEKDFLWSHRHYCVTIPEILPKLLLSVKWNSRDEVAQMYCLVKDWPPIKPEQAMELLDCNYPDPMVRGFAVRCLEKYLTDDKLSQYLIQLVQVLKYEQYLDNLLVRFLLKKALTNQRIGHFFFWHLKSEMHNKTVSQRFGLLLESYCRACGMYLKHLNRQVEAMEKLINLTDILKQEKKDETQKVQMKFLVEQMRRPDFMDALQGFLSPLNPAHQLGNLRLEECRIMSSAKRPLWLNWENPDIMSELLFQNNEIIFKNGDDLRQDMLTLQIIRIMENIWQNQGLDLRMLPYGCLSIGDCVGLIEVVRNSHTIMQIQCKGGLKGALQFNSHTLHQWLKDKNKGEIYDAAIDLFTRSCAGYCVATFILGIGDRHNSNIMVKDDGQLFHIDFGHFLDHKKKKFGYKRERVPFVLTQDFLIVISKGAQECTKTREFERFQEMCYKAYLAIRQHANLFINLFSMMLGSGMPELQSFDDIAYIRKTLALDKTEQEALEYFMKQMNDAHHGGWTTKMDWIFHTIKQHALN
- Sequence (P27986 whole entry partner, species assumed): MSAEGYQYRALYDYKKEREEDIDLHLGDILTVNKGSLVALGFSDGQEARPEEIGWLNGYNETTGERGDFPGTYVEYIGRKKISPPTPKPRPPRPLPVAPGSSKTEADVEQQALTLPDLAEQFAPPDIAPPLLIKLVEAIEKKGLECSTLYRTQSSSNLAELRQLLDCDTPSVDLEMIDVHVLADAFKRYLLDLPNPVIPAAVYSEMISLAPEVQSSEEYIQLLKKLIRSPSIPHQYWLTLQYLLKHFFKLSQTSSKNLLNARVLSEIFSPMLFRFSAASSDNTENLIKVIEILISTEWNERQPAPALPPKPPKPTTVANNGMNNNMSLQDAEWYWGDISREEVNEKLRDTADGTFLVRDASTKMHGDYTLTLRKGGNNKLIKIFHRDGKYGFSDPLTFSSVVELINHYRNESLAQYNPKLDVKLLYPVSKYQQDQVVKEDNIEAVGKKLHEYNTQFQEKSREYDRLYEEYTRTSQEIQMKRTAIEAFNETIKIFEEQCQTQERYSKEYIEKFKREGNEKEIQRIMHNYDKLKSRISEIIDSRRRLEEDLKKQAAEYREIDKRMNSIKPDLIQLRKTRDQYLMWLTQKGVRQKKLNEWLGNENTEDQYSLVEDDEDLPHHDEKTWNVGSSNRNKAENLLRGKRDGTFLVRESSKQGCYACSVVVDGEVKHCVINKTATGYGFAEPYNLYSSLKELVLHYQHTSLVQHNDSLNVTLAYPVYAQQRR
- procedureDetails: PI3K-alpha fluorescence polarization assay
- conditionSet: read-out: IC50 PI3Kα; listed as 354

chemicalStructure | IC50 / nM
CNC(=O)Nc1ccc(-c2nc(Nc3ccc(N4CCNCC4)cc3)nc(N3CC4CCC(C3)O4)n2)cc1 | 69

Where these numbers come from: patent US20090304692A1
